- EXPERIMENT_NOTES: Protein binding in rat plasma at 5 uM incubated for 6 hrs by red equilibrium dialysis based LC-MS/MS analysis
- Assay type: ADME, cell-free
- CONDITION_PARAMETERS: read-out: PPB (converted)
READOUT_TYPE: fraction unbound at 6 h, 5 µM
API doc: respond with a numeric literal and nothing else, no unit.

Asked: What measured fraction unbound at 6 h, 5 µM goes with `CC(C)(O)[C@H](F)CN1Cc2cc(NC(=O)c3cnn4cccnc34)c(N3CCOCC3)cc2C1=O` ?
Given back: 0.086

----------
- EXPERIMENT_NOTES: Oral bioavailability in cynomolgus monkey at 1 mg/kg
- Assay type: ADME, organism-based, Macaca fascicularis
- CONDITION_PARAMETERS: in vivo
READOUT_TYPE: bioavailability

Asked: Sample `CC(C)(O)[C@H](F)CN1Cc2cc(NC(=O)c3cnn4cccnc34)c(N3CCOCC3)cc2C1=O` — what was its bioavailability?
Given back: 47%
